tested on: EKVX NSCLC; test: NCI tumour cell line growth inhibition, 48 h
Test readout: TGI

**Query** Quick one: TGI of CC(=O)O[C@H]1CC[C@@]2(C)C(=CC[C@@H]3C2CC[C@]2(C)C(=O)NC(=O)CC32)C1 (stereo not given in full) ?
**Result** > 100 µM

More entries:
**Query** Quick one: TGI of CSC1=NC(=O)CCN1C1OCC(OC(C)=O)C(OC(C)=O)C1OC(C)=O (stereo not given) ?
**Result** > 31.6 µM

**Query** Quick one: TGI of c1ccc(C2(c3ccccc3)S/C(=C3/SC(c4ccccc4)(c4ccccc4)c4ccccc43)c3ccccc32)cc1 ?
**Result** > 100 µM

**Query** Quick one: TGI of S=P(C1CCCCC1)(C1CCCCC1)C(c1cccnc1)N1CCCC1 (stereo not given) ?
**Result** 41.7 µM

**Query** Quick one: TGI of [N-]=[N+]=CC(=O)OC1CCc2ccccc21 (stereo not given) ?
**Result** > 100 µM
